readout-type: logP

>>> print(df.to_string())
                   structure_string  readout_type   val
0          CSc1nc(N)nc(NC(C)(C)C)n1          logP  2.54
1     CSc1nc(NCCC=O)nc(NC(C)(C)C)n1          logP  2.92
2  CSc1nc(NC(C)(C)C)nc(NC(C)(C)C)n1          logP  4.39
3     CSc1nc(NC2CC2)nc(NC(C)(C)C)n1          logP  3.38

====

In this section, each of the compounds is paired with its reported logP.
assay: method code SF, from DOI: 10.1021/bk-1995-0606.ch005
readout-type: logP

In [3]: df
Out[3]:
                     structure_string  readout_type   val
0  COP(=S)(OC)Oc1ccc([N+](=O)[O-])cc1          logP  2.86
1                    COC(=O)Nc1ccccc1          logP  1.76
